Taken from patent US11807607B1.

Molecular target: DNA gyrase from E. coli (Escherichia coli, UniProt P0AES4+P0AES6)
Assay: Inspiralis E. coli DNA gyrase inhibition assay

{"columns": ["molecule", "IC50 [nM]"],
 "data": [
  ["CNc1cc(F)cc2c1[nH]c1ccc(-c3cccc(CC(=O)O)c3)cc12 [Compound 1]", 80]
]}
